TARGET: wild-type human cardiac sodium channel, hNav1.5 (Homo sapiens, UniProt Q14524)
Sequence (Q14524 whole entry): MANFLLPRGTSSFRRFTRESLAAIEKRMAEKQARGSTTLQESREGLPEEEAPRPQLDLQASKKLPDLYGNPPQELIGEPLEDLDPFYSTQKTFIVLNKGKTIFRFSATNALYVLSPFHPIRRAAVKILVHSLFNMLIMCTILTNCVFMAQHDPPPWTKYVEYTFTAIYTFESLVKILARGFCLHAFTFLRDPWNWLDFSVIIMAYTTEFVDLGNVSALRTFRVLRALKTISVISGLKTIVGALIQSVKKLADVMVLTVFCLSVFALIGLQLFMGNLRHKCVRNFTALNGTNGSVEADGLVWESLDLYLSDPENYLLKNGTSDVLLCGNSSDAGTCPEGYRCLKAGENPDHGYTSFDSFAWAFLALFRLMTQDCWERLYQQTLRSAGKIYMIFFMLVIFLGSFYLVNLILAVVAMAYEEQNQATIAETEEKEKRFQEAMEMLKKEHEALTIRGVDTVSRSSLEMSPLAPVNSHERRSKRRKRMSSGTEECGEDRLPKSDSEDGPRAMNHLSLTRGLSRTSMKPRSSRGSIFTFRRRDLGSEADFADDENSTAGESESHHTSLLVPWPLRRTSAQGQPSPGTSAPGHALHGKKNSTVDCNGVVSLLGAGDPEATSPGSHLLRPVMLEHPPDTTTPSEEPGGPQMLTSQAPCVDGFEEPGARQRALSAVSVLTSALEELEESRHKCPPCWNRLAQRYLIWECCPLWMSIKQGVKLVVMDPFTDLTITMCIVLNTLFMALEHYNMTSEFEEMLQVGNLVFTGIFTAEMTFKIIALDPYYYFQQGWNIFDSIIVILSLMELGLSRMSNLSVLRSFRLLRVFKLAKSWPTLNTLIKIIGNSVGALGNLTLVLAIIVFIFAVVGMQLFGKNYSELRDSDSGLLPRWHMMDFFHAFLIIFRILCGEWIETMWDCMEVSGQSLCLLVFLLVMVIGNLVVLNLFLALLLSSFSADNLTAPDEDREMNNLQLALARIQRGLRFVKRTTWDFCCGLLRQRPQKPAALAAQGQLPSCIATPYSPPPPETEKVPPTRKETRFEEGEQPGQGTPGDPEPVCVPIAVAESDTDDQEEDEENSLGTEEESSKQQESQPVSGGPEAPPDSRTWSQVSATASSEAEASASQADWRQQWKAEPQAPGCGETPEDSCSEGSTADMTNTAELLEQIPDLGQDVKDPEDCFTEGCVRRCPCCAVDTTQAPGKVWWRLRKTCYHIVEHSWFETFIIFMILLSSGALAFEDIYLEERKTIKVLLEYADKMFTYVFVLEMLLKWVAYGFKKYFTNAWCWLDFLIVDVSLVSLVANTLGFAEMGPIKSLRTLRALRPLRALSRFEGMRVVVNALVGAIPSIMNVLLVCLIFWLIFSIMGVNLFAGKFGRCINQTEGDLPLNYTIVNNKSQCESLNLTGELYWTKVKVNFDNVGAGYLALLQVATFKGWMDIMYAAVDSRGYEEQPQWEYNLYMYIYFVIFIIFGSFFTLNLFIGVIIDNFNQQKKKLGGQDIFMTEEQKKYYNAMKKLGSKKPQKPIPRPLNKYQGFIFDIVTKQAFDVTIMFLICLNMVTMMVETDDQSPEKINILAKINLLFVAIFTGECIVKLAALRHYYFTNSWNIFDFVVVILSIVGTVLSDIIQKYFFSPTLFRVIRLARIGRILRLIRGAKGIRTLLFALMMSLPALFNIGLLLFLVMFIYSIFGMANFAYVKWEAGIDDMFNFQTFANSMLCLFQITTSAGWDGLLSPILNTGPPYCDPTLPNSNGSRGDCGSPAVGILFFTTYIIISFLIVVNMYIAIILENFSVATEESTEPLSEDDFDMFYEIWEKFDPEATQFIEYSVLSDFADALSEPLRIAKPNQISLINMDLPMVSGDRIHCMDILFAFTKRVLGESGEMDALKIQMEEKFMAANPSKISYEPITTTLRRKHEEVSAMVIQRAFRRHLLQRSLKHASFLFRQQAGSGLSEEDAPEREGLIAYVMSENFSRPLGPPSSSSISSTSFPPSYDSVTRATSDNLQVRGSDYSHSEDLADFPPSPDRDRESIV
TEST_NAME: Late INa screening assay (automated whole cell patch clamp, PatchXpress)
Assay type: cell-based
CONDITION_PARAMETERS: compound at 1 μM; HEK293 cells expressing hNav1.5; late INa generated with 10 μM Tefluthrin (or 50 nM ATX II); read-out: LateINa_1 uM (percent block of late INa)
Class membership depends on inhibition at 1 µM alone; the intervals are low: < 30%; moderate: ≥ 30% and < 50%; high: ≥ 50%

A selection of reference data follows.
COMPOUND	CAT
Fc1ccc(COCC(F)(F)c2nnc3ccc(-c4ccc(OC(F)(F)F)cc4)cn23)cc1F [BHN-190]	low
Cc1cc(-c2ccc(OC(F)(F)F)cc2)cn2nnnc12 [BHN-268]	moderate
FC(F)(F)Oc1ccc(-c2ccc3nnc(C(F)(F)OCc4cnn(-c5ccccc5)c4)n3c2)cc1 [BHN-287]	moderate
Fc1cc(-c2ccc3nnc(C(F)F)n3n2)ccc1OC(F)(F)F [BHN-253]	moderate
CC(=O)c1ccc(-c2ccc3nnc(C(F)(F)F)n3c2)cc1 [BHN-154]	low
Clc1ccc(Oc2ccc(-c3ccc4nnnn4c3)cc2)cc1 [BHN-218]	moderate

Q: Band of COC(F)(F)c1nnc2ccc(-c3ccc(OC(F)(F)F)cc3)cn12 [BHN-140] ?
Ans: high

Q: Band of COc1ccc(N2CCN(CCOC(F)(F)c3nnc4ccc(-c5ccc(OC(F)(F)F)cc5)cn34)CC2)cc1 [BHN-264] ?
Ans: high
